- assay-text: Pharmacokinetic parameters in mice (plasma, LC-MS/MS)
- measurement-context: male, C57Bl/6, mouse, plasma, po, 10 mg/kg
readout-name: AUC(0-t) (µM·h)
Return type: number; implicit unit µM·h.

Problem: Query (molecule): CCOC(=O)C=CC(CC1CCNC1=O)NC(=O)C(Cc1ccccc1)NC(=O)C(Cc1ccc(F)cc1)NC(=O)OC(C)(C)C (stereo not shown) [SM142] ; field requested: AUC(0-t)
Solution: 0.5

###

- assay-text: in vivo
- measurement-context: male, C57Bl/6, mouse, ip
readout-name: AUC(0-inf)
Kindly format the answer as number then unit.

Problem: Query: AUC(0-inf); subject: CCOC(=O)C=CC(CC1CCNC1=O)NC(=O)C(Cc1ccccc1)NC(=O)C(N)Cc1ccccc1 (stereo not shown)
Solution: 827 ng·h/mL
